- assay conditions: 20.0 µM
quantity kind: relative solubility at 20 uM

>>> observed("CN(C(=O)Cc1noc2ccccc12)c1ccc(NC(=O)OC(C)(C)C)cc1")
0.98
>>> observed("Cc1ccccc1CN1CCN(C(=O)C(F)C(C)C)CC1 (stereo not given)")
1
>>> observed("O=C(NCc1coc2ccccc12)C1CCc2nnc(-c3ccc(O)cc3)n2C1 (stereo not given)")
0.89
>>> observed("CC(=O)N[C@@H](Cc1ccc(O)cc1)C(=O)NC(CN1CCN(C(=O)CCl)CC1)c1ccccc1 (stereo in doubt)")
0.99
>>> observed("Cc1ccncc1CC(=O)Nc1cccc(Cl)c1")
1
>>> observed("O=C(c1cc(=O)[nH]c2ccc(Cl)cc12)N1CCN(S(=O)(=O)c2ccccc2)CC1")
0.94
>>> observed("C=CC(=O)N(c1ccc(N(C)C)c(C)c1)C(C(=O)Nc1ccc(OC)cc1)c1cccnc1 (stereo not given)")
0.88
>>> observed("C=CC(=O)N(c1ccc(C(C)(C)C)cc1)C(C(=O)NC(C)(C)C)c1cncc(C(C)(F)F)c1 (stereo not given)")
0.99
>>> observed("C=CC(=O)N(c1ccc2c(ccn2C)c1)C(C(=O)NC(C)(C)C)c1cccnc1 (stereo not given)")
1.01
>>> observed("O=C(c1cc(=O)[nH]c2ccc(F)cc12)N1CCN(S(=O)(=O)c2ccccc2)CC1")
0.98
